Measured values drawn from patent EP4682144A1 for this set.

# assay.name: Preliminary solubility test in solvents at room temperature
# Type: physicochemical
# condition.description: ipa/h2o (1:1) v/v, room temperature
Counter-ions that a name gives are not always drawn.

| compound | solubility |
| --- | --- |
| CC(C)C[C@@H](C(=O)Nc1ccn(C[C@@H](O)COC(=O)c2cccnc2)n1)N1CC(Oc2ccccc2Cl)=CC1=O [Hydrochloride crystal form B] | > 40 mg/mL |

---

# assay.name: Caco-2 bi-directional permeability test
# condition.description: human, Caco-2, pH 7.4, Average recovery rate (%) A→B, Compound A concentration 10.0 µM
assay.endpoint: recovery at 2 h, 10 µM (%)

| sample.smiles | value.units | recorded.measurement |
| --- | --- | --- |
| CC(C)C[C@@H](C(=O)Nc1ccn(C[C@@H](O)COC(=O)c2cccnc2)n1)N1CC(Oc2ccccc2Cl)=CC1=O | % | 37.5 |

---

# assay.name: Preliminary solubility test in solvents at room temperature
# Format: physicochemical
# condition.description: ipa, 25 °C, organic solvent or mixture, thermodynamic from solid, room temperature
Counter-ions that a name gives are not always drawn.
assay.endpoint: solubility

| compound | assay.endpoint | recorded.measurement |
| --- | --- | --- |
| CC(C)C[C@@H](C(=O)Nc1ccn(C[C@@H](O)COC(=O)c2cccnc2)n1)N1CC(Oc2ccccc2Cl)=CC1=O [Hydrochloride crystal form B] | solubility | < 1100 µg/mL |

---

# assay.name: Preliminary solubility test in solvents at room temperature
# Format: physicochemical
# condition.description: H2O, 25 °C, water, thermodynamic from solid, room temperature

| compound | solubility |
| --- | --- |
| CC(C)C[C@@H](C(=O)Nc1ccn(C[C@@H](O)COC(=O)c2cccnc2)n1)N1CC(Oc2ccccc2Cl)=CC1=O [Compound A] | < 1100 µg/mL |

---

# assay.name: Preliminary solubility test in solvents at room temperature
# Assay type: physicochemical
# condition.description: dmf/h2o (1:1) v/v, room temperature
Where a name gives a salt, the structure may show the parent alone.
assay.endpoint: solubility

| compound | recorded.measurement |
| --- | --- |
| CC(C)C[C@@H](C(=O)Nc1ccn(C[C@@H](O)COC(=O)c2cccnc2)n1)N1CC(Oc2ccccc2Cl)=CC1=O [Hydrochloride crystal form B] | 22 to 44 mg/mL |

---

# assay.name: Preliminary solubility test in solvents at room temperature
# Format: physicochemical
# condition.description: EtOAc/n-heptane (1:4 v/v), 25 °C, organic solvent or mixture, thermodynamic from solid, EtOAc/n-Heptane (1:4) v/v, room temperature
assay.endpoint: solubility

| sample.smiles | recorded.measurement |
| --- | --- |
| CC(C)C[C@@H](C(=O)Nc1ccn(C[C@@H](O)COC(=O)c2cccnc2)n1)N1CC(Oc2ccccc2Cl)=CC1=O | < 1100 µg/mL |

---

# assay.name: Preliminary solubility test in solvents at room temperature
# Assay type: physicochemical
# condition.description: dcm, 25 °C, organic solvent or mixture, thermodynamic from solid, room temperature
Where a name gives a salt, the structure may show the parent alone.

| compound | solubility |
| --- | --- |
| CC(C)C[C@@H](C(=O)Nc1ccn(C[C@@H](O)COC(=O)c2cccnc2)n1)N1CC(Oc2ccccc2Cl)=CC1=O [Hydrochloride crystal form B] | < 1000 µg/mL |

---

# assay.name: Preliminary solubility test in solvents at room temperature
# Format: physicochemical
# condition.description: acn, 25 °C, organic solvent or mixture, thermodynamic from solid, room temperature
# Description: Table 10 Solubility range of the starting material sample at room temperature The solubility range in the corresponding solvent was calculated based on the mass of the sample and the volume of the added solvent, as shown in Table 28. The data were used as a base to guide the selection of solvent in screening tests. […] The solubility range in the corresponding solvent was calculated based on the mass of the sample and the volume of the added solvent, as shown in Table 35. […]
Where a name gives a salt, the structure may show the parent alone.

| compound | solubility |
| --- | --- |
| CC(C)C[C@@H](C(=O)Nc1ccn(C[C@@H](O)COC(=O)c2cccnc2)n1)N1CC(Oc2ccccc2Cl)=CC1=O [Hydrochloride crystal form B] | < 1100 µg/mL |
